Overview of recorded log10 EC50 for various compounds
System: Synechocystis sp. PCC 6803
test: Algicidal activity against wild-type Synechocystis sp. PCC 6803 after 24 hrs by microbroth dilution method
Assay type: functional, organism-based
Please keep in mind that the values are log10 of EC50 expressed in ppm.

Consider the reported log10 EC50 for these compounds:
O=C(NNC(=S)NC(=O)c1ccccc1)c1ccc(Br)cc1 : 0.20
O=C(NNC(=S)NC(=O)c1ccccc1)c1ccc(F)cc1 : 0.91
O=C(NC(=S)NNC(=O)c1ccccc1O)c1ccc(Cl)cc1 : -0.01
O=C(NNC(=S)NC(=O)c1ccccc1)c1cccc([N+](=O)[O-])c1 : -0.41

Now for the compound whose log10 EC50 we want.
I would be grateful if you could share the reported log10 EC50 for `O=C(NNC(=S)NC(=O)c1ccccc1)c1cccc(Br)c1` . 0.77

====

subjectOfTest: Fructose-bisphosphate aldolase class 2 (Synechocystis sp. (strain PCC 6803 / Kazusa), UniProt Q55664)
Sequence (Q55664 whole entry): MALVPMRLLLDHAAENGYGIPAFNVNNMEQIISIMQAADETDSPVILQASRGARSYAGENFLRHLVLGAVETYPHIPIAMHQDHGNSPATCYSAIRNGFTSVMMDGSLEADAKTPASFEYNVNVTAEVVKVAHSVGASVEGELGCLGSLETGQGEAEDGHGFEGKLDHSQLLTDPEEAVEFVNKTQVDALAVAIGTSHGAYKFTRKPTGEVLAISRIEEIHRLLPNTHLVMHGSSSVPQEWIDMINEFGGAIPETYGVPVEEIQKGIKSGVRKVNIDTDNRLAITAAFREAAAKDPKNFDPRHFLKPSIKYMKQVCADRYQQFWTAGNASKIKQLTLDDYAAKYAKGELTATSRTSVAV
test: Inhibition of recombinant Synechocystis sp. PCC 6803 FBA2 expressed in Escherichia coli BL21 (DE3) using FBP as substrate measured over 5 mins
Overview of recorded pKi for various compounds
By convention, pKi is the negative base-10 log of a molar concentration.

Consider the reported pKi for these compounds:
O=C(NC(=S)NNC(=O)c1ccc(O)cc1O)c1ccccc1 : 5.90
O=C(NNC(=S)NC(=O)c1ccccc1)c1ccc([N+](=O)[O-])cc1 : 5.55
O=C(NC(=S)NNC(=O)c1ccccc1O)c1ccc(F)cc1 : 6.06
Cc1ccc(C(=O)NC(=S)Nc2ccc([N+](=O)[O-])cc2O)cc1 : 5.26
O=C(NC(=S)Nc1ccc([N+](=O)[O-])cc1O)c1ccc(-c2ccccc2)cc1 : 5.60
O=C(NC(=S)Nc1ccc([N+](=O)[O-])cc1O)c1ccc(C(F)(F)F)cc1 : 5.26
O=C(NNC(=S)NC(=O)c1ccccc1)c1cccc(Br)c1 : 5.51
O=C(NNC(=S)NC(=O)c1ccccc1)c1cccc([N+](=O)[O-])c1 : 5.73

I would be grateful if you could share the reported pKi for `O=C(NNC(=S)NC(=O)c1ccccc1)c1ccc(Br)cc1` . 5.28

I would be grateful if you could share the reported pKi for `O=C(NC(=S)Nc1cc([N+](=O)[O-])ccc1O)c1ccc(Cl)cc1` . 5.04

I would be grateful if you could share the reported pKi for `O=C(NC(=S)Nc1ccc([N+](=O)[O-])cc1O)c1ccc([N+](=O)[O-])cc1` . 5.72

I would be grateful if you could share the reported pKi for `O=C(NC(=S)Nc1ccc([N+](=O)[O-])cc1O)c1ccccc1` . 4.78

I would be grateful if you could share the reported pKi for `O=C(NC(=S)Nc1cc([N+](=O)[O-])ccc1O)c1ccccc1` . 5.04

I would be grateful if you could share the reported pKi for `O=C(NC(=S)NNC(=O)c1ccccc1O)c1ccc(Cl)cc1` . 6.20

I would be grateful if you could share the reported pKi for `O=C(NNC(=S)NC(=O)c1ccccc1)c1ccc(F)cc1` . 5.46

====

Overview of recorded Ki for various compounds
subjectOfTest: Fructose-bisphosphate aldolase class 2 (Synechocystis sp. (strain PCC 6803 / Kazusa), UniProt Q55664, N275A)
Sequence (Q55664 2-359 N275A limits assumed): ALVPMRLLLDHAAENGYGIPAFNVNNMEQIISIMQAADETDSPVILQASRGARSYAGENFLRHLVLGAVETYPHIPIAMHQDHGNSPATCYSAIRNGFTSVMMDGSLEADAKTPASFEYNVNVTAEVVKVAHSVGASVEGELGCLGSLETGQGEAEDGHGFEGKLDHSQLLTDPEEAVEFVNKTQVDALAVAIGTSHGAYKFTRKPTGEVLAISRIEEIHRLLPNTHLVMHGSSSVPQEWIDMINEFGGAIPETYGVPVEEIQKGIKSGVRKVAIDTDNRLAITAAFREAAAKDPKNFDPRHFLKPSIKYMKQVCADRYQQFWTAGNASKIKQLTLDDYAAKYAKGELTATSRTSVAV
test: Inhibition of recombinant Synechocystis sp. PCC 6803 FBA2 N275A mutant expressed in Escherichia coli BL21 (DE3) using FBP as substrate measured over 5 mins
# do not omit the unit; it follows the number

I would be grateful if you could share the reported Ki for `O=C(NC(=S)Nc1ccc([N+](=O)[O-])cc1O)c1ccc([N+](=O)[O-])cc1` . 37.9 µM

I would be grateful if you could share the reported Ki for `O=C(NC(=S)NNC(=O)c1ccccc1O)c1ccccc1` . 15.9 µM

====

Overview of recorded inhibition for various compounds
subjectOfTest: Fructose-bisphosphate aldolase class 2 (Synechocystis sp. (strain PCC 6803 / Kazusa)) (UniProt Q55664)
Sequence (Q55664 whole entry): as the sequence (Q55664 whole entry) above
test: Inhibition of recombinant Synechocystis sp. PCC 6803 FBA2 expressed in Escherichia coli BL21 (DE3) using FBP as substrate measured over 5 mins
Parameters: concentration or dose not given beside the values
Report only the number, with the unit % understood.

Consider the reported inhibition for these compounds:
O=C(NC(=S)Nc1ccc(Br)cc1)c1ccccc1 : 42
O=C(NC(=S)Nc1ccccc1Cl)c1ccccc1 : 30
O=C(NC(=S)Nc1ccc(O)cc1)c1ccccc1 : 22
O=C(NC(=S)Nc1ccccc1O)c1ccccc1 : 37
O=C(NC(=S)Nc1ccccc1[N+](=O)[O-])c1ccccc1 : 15

Now for the compound whose inhibition we want.
I would be grateful if you could share the reported inhibition for `O=C(NC(=S)Nc1ccc([N+](=O)[O-])cc1)c1ccccc1` . 60

====

Overview of recorded Ki for various compounds
subjectOfTest: Fructose-bisphosphate aldolase class 2 (Synechocystis sp. (strain PCC 6803 / Kazusa), UniProt Q55664, T278A)
test: Inhibition of recombinant Synechocystis sp. PCC 6803 FBA2 T278A mutant expressed in Escherichia coli BL21 (DE3) using FBP as substrate measured over 5 mins
Report only the number, with the unit µM understood.

O=C(NC(=S)NNC(=O)c1ccccc1O)c1ccccc1 : 4.3

Now for the compound whose Ki we want.
I would be grateful if you could share the reported Ki for `O=C(NC(=S)Nc1ccc([N+](=O)[O-])cc1O)c1ccc([N+](=O)[O-])cc1` . 87.5

====

subjectOfTest: Fructose-bisphosphate aldolase class 2 (Synechocystis sp. (strain PCC 6803 / Kazusa), UniProt Q55664, D277A)
Sequence (Q55664 2-359 D277A limits assumed): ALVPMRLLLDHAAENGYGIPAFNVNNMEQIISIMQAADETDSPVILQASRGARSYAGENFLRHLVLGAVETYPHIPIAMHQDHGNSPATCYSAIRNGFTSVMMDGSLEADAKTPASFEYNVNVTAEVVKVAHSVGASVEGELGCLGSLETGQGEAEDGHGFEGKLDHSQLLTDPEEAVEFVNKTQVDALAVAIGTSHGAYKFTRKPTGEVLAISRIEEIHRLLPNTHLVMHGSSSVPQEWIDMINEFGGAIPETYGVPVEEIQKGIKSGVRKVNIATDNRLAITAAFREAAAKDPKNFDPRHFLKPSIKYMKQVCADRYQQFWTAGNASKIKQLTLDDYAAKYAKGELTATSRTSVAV
test: Inhibition of recombinant Synechocystis sp. PCC 6803 FBA2 D277A mutant expressed in Escherichia coli BL21 (DE3) using FBP as substrate measured over 5 mins
Overview of recorded pKi for various compounds
By convention, pKi is the negative base-10 log of a molar concentration.

O=C(NC(=S)NNC(=O)c1ccccc1O)c1ccccc1 : 5.14

I would be grateful if you could share the reported pKi for `O=C(NC(=S)Nc1ccc([N+](=O)[O-])cc1O)c1ccc([N+](=O)[O-])cc1` . 5.34

====

test: Solubility of the compound
Format: physicochemical
quantityKind: solubility (µg/mL)
Report only the number, with the unit µg/mL understood.

Consider the reported solubility for these compounds:
O=CNC(=S)Nc1c(O)cc([N+](=O)[O-])cc1-c1ccccc1 : 160
O=C(O)c1cccc([C@@H]2CCC[C@@H]2c2ncc3nc[nH]c3n2)c1 : 13100
O=C(NC(=S)Nc1ccc([N+](=O)[O-])cc1O)c1ccccc1 : 180
O[C@@H]1CC[C@@](O)(n2c(-c3ccccc3)nc3ncncc32)OC1 : 730
c1ccc(-n2c(-n3cnc4ncncc43)nc3cncnc32)cc1 : 290

Now for the compound whose solubility we want.
I would be grateful if you could share the reported solubility for `CCNCCc1ccccc1-c1ccccc1` . 8350

====

Overview of recorded logP for various compounds
test: Lipophilicity, log P of the compound
Assay type: physicochemical
measurementConditions: octanol/water
Reply with the value as a number alone.

I would be grateful if you could share the reported logP for `CCNCCc1ccccc1-c1ccccc1` . 4

I would be grateful if you could share the reported logP for `O=CNC(=S)Nc1c(O)cc([N+](=O)[O-])cc1-c1ccccc1` . 2.48

I would be grateful if you could share the reported logP for `O=C(O)c1cccc([C@@H]2CCC[C@@H]2c2ncc3nc[nH]c3n2)c1` . 2.96

I would be grateful if you could share the reported logP for O[C@H]1CO[C@@H](O)C(c2nc3ncncc3n2-c2ccccc2)C1 (stereo not given in full) . 0.82

I would be grateful if you could share the reported logP for `O=CNC(=S)Nc1cc(-c2ccccc2)c([N+](=O)[O-])cc1O` . 2.45

I would be grateful if you could share the reported logP for `c1ccc(-n2c(-n3cnc4ncncc43)nc3cncnc32)cc1` . 0.99

I would be grateful if you could share the reported logP for `N[C@@H](Cc1ccc(O)cc1-c1ccccc1)c1ccccc1O` . 3.23

I would be grateful if you could share the reported logP for `O=C(NC(=S)Nc1ccc([N+](=O)[O-])cc1O)c1ccccc1` . 2.6

I would be grateful if you could share the reported logP for Oc1cccc(COC2CC[C@@H](O)C(Cc3ccccc3)O2)c1 (stereo not given in full) . 3.32

I would be grateful if you could share the reported logP for `O[C@@H]1CC[C@@](O)(n2c(-c3ccccc3)nc3ncncc32)OC1` . 0.94

====

Overview of recorded Ki for various compounds
subjectOfTest: Fructose-bisphosphate aldolase class 2 (Synechocystis sp. (strain PCC 6803 / Kazusa), UniProt Q55664, S55A)
Sequence (Q55664 2-359 S55A limits assumed): as the sequence (Q55664 2-359 N275A limits assumed) above, with S54A, A274N counted along it
test: Inhibition of recombinant Synechocystis sp. PCC 6803 FBA2 S55A mutant expressed in Escherichia coli BL21 (DE3) using FBP as substrate measured over 5 mins
Report only the number, with the unit nM understood.

O=C(NC(=S)Nc1ccc([N+](=O)[O-])cc1O)c1ccc([N+](=O)[O-])cc1 : 3400

I would be grateful if you could share the reported Ki for `O=C(NC(=S)NNC(=O)c1ccccc1O)c1ccccc1` . 1000
